Numbers sourced from patent EP4696691A1.

Test: Pharmacokinetic behavior in mice (plasma concentration by LC-MS/MS)
Format: in vivo
Settings: male ICR mice, Intragastric administration (5 mg/kg)
outcome_measure: T1/2 (h)
Give the quantity in h, number only.

INPUT: Give a short answer stating reported T1/2 for COc1cc2nn([C@H]3CC[C@H](CCN4CCC5(CC4)OCc4cc(C6CCC(=O)NC6=O)ccc45)CC3)cc2cc1NC(=O)c1cccc(C(F)(F)F)n1 (stereo partly shown) .
OUTPUT: 27.3

INPUT: Give the reported T1/2 for this compound. CC(C)(O)c1cc2nn([C@H]3CC[C@H](CCN4CCN5c6ccc(C7CCC(=O)NC7=O)cc6OCC5C4)CC3)cc2cc1NC(=O)c1cccc(C(F)(F)F)n1 (stereo partly shown)
OUTPUT: 8.03

INPUT: Output measured T1/2 for this item: CC(C)(O)c1cc2nn([C@H]3CC[C@H](CCN4CCN5c6ccc(C7CCC(=O)NC7=O)cc6OC[C@H]5C4)CC3)cc2cc1NC(=O)c1cccc(C(F)(F)F)n1 (stereo partly shown)
OUTPUT: 15.3

INPUT: Return the recorded T1/2 value; entry: CC(C)(O)c1cc2nn([C@H]3CC[C@H](CCN4CCN5c6ccc(C7CCC(=O)NC7=O)cc6OC[C@@H]5C4)CC3)cc2cc1NC(=O)c1cccc(C(F)(F)F)n1 (stereo partly shown)
OUTPUT: 17.5

###

Assay: Pharmacokinetic behavior in mice (plasma concentration by LC-MS/MS)
Format: in vivo
Details: mouse, plasma; male ICR mice, Intravenous injection (1 mg/kg); read-out: Vss
Answer each item with its documented Vd.
Report only the number, with the unit L/kg understood.

INPUT: Assign Vd to the following record: COc1cc2nn([C@H]3CC[C@H](CCN4CCC5(CC4)OCc4cc(C6CCC(=O)NC6=O)ccc45)CC3)cc2cc1C(=O)Nc1cccc(C(F)(F)F)n1 (stereo partly drawn)
OUTPUT: 7.97

INPUT: Tell me its Vd given CC(C)(O)c1cc2nn([C@H]3CC[C@H](CCN4CCC5(CC4)OC(=O)c4cc(C6CCC(=O)NC6=O)ccc45)CC3)cc2cc1NC(=O)c1cccc(C(F)(F)F)n1 (stereo partly drawn) as the entry.
OUTPUT: 0.958

INPUT: Write down Vd measured for item CC(C)(O)c1cc2nn([C@H]3CC[C@H](CCN4CCN5c6c(F)cc(C7CCC(=O)NC7=O)cc6OCC5C4)CC3)cc2cc1NC(=O)c1cccc(C(F)(F)F)n1 (stereo partly drawn)
OUTPUT: 1.07

###

I'd appreciate it if you could supply DC50 values for the items below.
Target: IRAK4-HiBiT fusion protein (Homo sapiens)
Construct: K562 from ATCC
Assay: Detection of HiBiT-IRAK4 proteolysis levels in K562 IRAK4-HiBiT cells (Nano-Glo HiBiT Lytic assay)
Format: cell-based
Settings: 6 h incubation, read-out: Absolute DC50
The figure you give is taken to be in nM; do not add the unit.

INPUT: Given COc1cc2nn([C@H]3CC[C@H](CCN4CCN5c6ccc(C7CCC(=O)NC7=O)cc6OCC5C4)CC3)cc2cc1C(=O)Nc1cccc(C(F)(F)F)n1 (some centres unmarked) , report its DC50 on IRAK4-HiBiT fusion protein (Homo sapiens).
OUTPUT: 3.87

INPUT: Please report DC50 with IRAK4-HiBiT fusion protein (Homo sapiens) for item CC(C)(O)c1cc2nn([C@H]3CC[C@H](CCN4CCN5c6ccc(C7CCC(=O)NC7=O)cc6OCCC5C4)CC3)cc2cc1NC(=O)c1cccc(C(F)(F)F)n1 (some centres unmarked) .
OUTPUT: 8.13

INPUT: Report the value of DC50 obtained on IRAK4-HiBiT fusion protein (Homo sapiens) for CC(C)(O)c1cc2nn([C@H]3CC[C@H](CCN4CCN5c6ccc(C7CCC(=O)NC7=O)cc6OCC5C4)CC3)cc2cc1NC(=O)c1ccc2cc(C#N)cnn12 (some centres unmarked) .
OUTPUT: 4.41

INPUT: Determine reported DC50 for CC(C)(O)c1cc2nn([C@H]3CC[C@H](CCN4CCN5c6ccc(N7CCC(=O)NC7=O)cc6OCC5C4)CC3)cc2cc1NC(=O)c1cccc(C(F)(F)F)n1 (some centres unmarked) ; test system: IRAK4-HiBiT fusion protein (Homo sapiens).
OUTPUT: 11.7

INPUT: Provide DC50, recorded with IRAK4-HiBiT fusion protein (Homo sapiens), of CC(C)(O)c1cc2nn([C@H]3CC[C@H](CCN4CC5(CCN6c7ccc(C8CCC(=O)NC8=O)cc7NC6C5)C4)CC3)cc2cc1NC(=O)c1cccc(C(F)(F)F)n1 (some centres unmarked)
OUTPUT: 146

INPUT: Answer briefly: DC50 recorded on IRAK4-HiBiT fusion protein (Homo sapiens) for CC(C)(O)c1cc2nn([C@H]3CC[C@H](CCN4CCN5c6ncc(N7CCC(=O)NC7=O)cc6OCC5C4)CC3)cc2cc1NC(=O)c1cccc(C(F)(F)F)n1 (some centres unmarked)
OUTPUT: 8.37

INPUT: Please report the measured DC50 for CC(C)(O)c1cc2nn([C@H]3CC[C@H](CCN4CCN5c6ccc(C7(C)CCC(=O)NC7=O)cc6OCC5C4)CC3)cc2cc1NC(=O)c1ccc2cc(C#N)cnn12 (some centres unmarked) tested on IRAK4-HiBiT fusion protein (Homo sapiens).
OUTPUT: 10.8

INPUT: Give measured DC50 for CC(C)(O)c1cc2nn([C@H]3CC[C@H](CN4CCC5(CC4)OCc4cc(C6CCC(=O)NC6=O)ccc45)CC3)cc2cc1NC(=O)c1cccc(C(F)(F)F)n1 (some centres unmarked) (IRAK4-HiBiT fusion protein (Homo sapiens)).
OUTPUT: 4.85

INPUT: Give DC50 only, for CC(C)(O)c1cc2nn([C@H]3CC[C@H](CCN4CCN5c6ncc(C7CCC(=O)NC7=O)cc6OCC5C4)CC3)cc2cc1NC(=O)c1cccc(C(F)(F)F)n1 (some centres unmarked) , using IRAK4-HiBiT fusion protein (Homo sapiens) data.
OUTPUT: 6.32

INPUT: Give DC50 only, for CC(C)(O)c1cc2nn([C@H]3CC[C@H](CCN4CCC5(CC4)OCc4cc(C6CCC(=O)NC6=O)ccc45)CC3)cc2cc1NC(=O)c1cccc(C(F)(F)F)n1 (some centres unmarked) , using IRAK4-HiBiT fusion protein (Homo sapiens) data.
OUTPUT: 0.65

INPUT: Report value only: DC50, IRAK4-HiBiT fusion protein (Homo sapiens), CC(C)Oc1cc2nc([C@H]3CC[C@H](CCN4CCC5(CC4)OCc4cc(C6CCC(=O)NC6=O)ccc45)CC3)cn2cc1C(=O)Nc1cnn2cccnc12 (some centres unmarked)
OUTPUT: 3.82

###

Target: IRAK4-HiBiT fusion protein (Homo sapiens)
Construct: K562 from ATCC
Sequence (Q9NWZ3 1-460): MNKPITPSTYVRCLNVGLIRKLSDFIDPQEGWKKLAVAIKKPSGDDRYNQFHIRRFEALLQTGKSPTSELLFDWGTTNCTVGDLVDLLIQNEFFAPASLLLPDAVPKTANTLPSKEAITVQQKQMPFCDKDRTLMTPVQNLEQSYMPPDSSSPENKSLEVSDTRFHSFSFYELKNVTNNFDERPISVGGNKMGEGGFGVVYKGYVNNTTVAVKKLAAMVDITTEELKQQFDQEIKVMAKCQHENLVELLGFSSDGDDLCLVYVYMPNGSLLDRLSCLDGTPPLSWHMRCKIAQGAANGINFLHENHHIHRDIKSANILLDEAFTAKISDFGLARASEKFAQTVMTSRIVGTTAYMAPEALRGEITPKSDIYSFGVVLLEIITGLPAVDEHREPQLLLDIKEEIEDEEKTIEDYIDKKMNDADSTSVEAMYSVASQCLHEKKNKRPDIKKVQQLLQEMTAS
Assay: Detection of HiBiT-IRAK4 proteolysis levels in K562 IRAK4-HiBiT cells (Nano-Glo HiBiT Lytic assay)
Assay type: cell-based
Conditions: 6 h incubation
Provide the reported Dmax of each item.
Could you give me the number in %? Just the number is fine.

INPUT: Let me know recorded Dmax for COc1cc2nn([C@H]3CC[C@H](CCN4CCC5(CC4)OCc4cc(C6CCC(=O)NC6=O)ccc45)CC3)cc2cc1C(=O)Nc1cccc(C(F)(F)F)n1 (stereo partly shown) , thanks.
OUTPUT: 97

INPUT: Provide measured Dmax value, entry: COc1cc2nn(C3CCN(CCN4CCC5(CC4)OCc4cc(C6CCC(=O)NC6=O)ccc45)CC3)cc2cc1NC(=O)c1cccc(C(F)(F)F)n1 (stereo not shown)
OUTPUT: 93

INPUT: Specify measured Dmax for CC(C)(O)c1cc2nn([C@H]3CC[C@H](CCN4CCN5c6ccc(C7CCC(=O)NC7=O)cc6OCC5C4)CC3)cc2cc1NC(=O)c1cccc(C(F)(F)F)n1 (stereo partly shown) .
OUTPUT: 91.1

INPUT: Please give the documented Dmax of CC(C)(O)c1cc2nn([C@H]3CC[C@H](CCN4CC5(CCN6c7ccc(C8CCC(=O)NC8=O)cc7NC6C5)C4)CC3)cc2cc1NC(=O)c1cccc(C(F)(F)F)n1 (stereo partly shown)
OUTPUT: 77

INPUT: For the compound CC(C)(O)c1cc2nn([C@H]3CC[C@H](CN4CCC5(CC4)OCc4cc(C6CCC(=O)NC6=O)ccc45)CC3)cc2cc1NC(=O)c1cccc(C(F)(F)F)n1 (stereo partly shown) , give its reported Dmax.
OUTPUT: 85

INPUT: Tell me its Dmax given COc1cc2nn(C3CCN(CCN4CCN5c6ccc(C7CCC(=O)NC7=O)cc6OCC5C4)CC3)cc2cc1NC(=O)c1cccc(C(F)(F)F)n1 (stereo not shown) as the entry.
OUTPUT: 89

INPUT: Name the recorded Dmax of the compound listed here: CC(C)(O)c1cc2nn([C@H]3CC[C@H](CCN4CCN5c6ccc(C7(C)CCC(=O)NC7=O)cc6OCC5C4)CC3)cc2cc1NC(=O)c1ccc2cc(C#N)cnn12 (stereo partly shown)
OUTPUT: 97

INPUT: Determine its reported Dmax: CC(C)(O)c1cc2nn([C@H]3CC[C@H](CCN4CCN5c6ncc(N7CCC(=O)NC7=O)cc6OCC5C4)CC3)cc2cc1NC(=O)c1cccc(C(F)(F)F)n1 (stereo partly shown)
OUTPUT: 83

INPUT: Hello, please tell me recorded Dmax for this one: CC(C)(O)c1cc2nn([C@H]3CC[C@H](CCN4CCC5(CC4)OCc4cc(C6CCC(=O)NC6=O)ccc45)CC3)cc2cc1NC(=O)c1cccc(C(F)(F)F)n1 (stereo partly shown)
OUTPUT: 93

INPUT: Return the recorded Dmax value; entry: CC(C)(O)c1cc2nn([C@H]3CC[C@H](CCN4CCN5c6ccc(C7CCC(=O)NC7=O)cc6OCC5C4)CC3)cc2cc1NC(=O)c1ccc2cc(C#N)cnn12 (stereo partly shown)
OUTPUT: 97
